Listing of entries alongside the reported pKd.
Assay: Chromophore titration, fit to single binding site isotherm: DFHO
Conditions: n=1 titration; ± SD of the fit; Table 3C
pKd: −log10 of the molar value.
Quantity measured: pKd

[[record]]
molecule = "mFAP2.2: SEQ ID NO:41 (protein, (1)..(1) optionally absent) MSRAAQLLPGTWQVTMTNEDGQTSQGQMHFQPRSPYTMDVVAQGTISDGRPIVGYGKVTVKTPDTLDVDITYPSLGNIKAQGQITMDSPTQFKFDATTKGAGNFTGRLTGTLQRQE"
quantity_measured = "pKd"
observed_result = 4.64

[[record]]
molecule = "mFAP2b: SEQ ID NO:69; mFAP2.5 with V67I (protein, (1)..(1) optionally absent) MSRAAQLLPGTWQVTMTNEDGQTSQGQWHFQPRSPYTMDIVAQGTISDGRPIVGYGKATVKTPDTLDIDITYPSLGNIKAQGQITMDSPTQFKWDATTKGENDFHGRLTGTLQRQE"
quantity_measured = "pKd"
observed_result = 5.05

[[record]]
molecule = "mFAP2.5: SEQ ID NO:60; mutations of mFAP2.3 and mFAP2.4 combined (protein, (1)..(1) optionally absent) MSRAAQLLPGTWQVTMTNEDGQTSQGQWHFQPRSPYTMDIVAQGTISDGRPIVGYGKATVKTPDTLDVDITYPSLGNIKAQGQITMDSPTQFKWDATTKGENDFHGRLTGTLQRQE"
quantity_measured = "pKd"
observed_result = 4.47

[[record]]
molecule = "mFAP2a: SEQ ID NO:66 (protein, (1)..(1) optionally absent) MSRAAQLLPGTWQATFTNEDGQTSQGQWHFQPRSPYTMDIVAQGTISDGRPIVGYGKATVKTPDTLDIDITYPSLGNIKAQGQITMDSPTQFKWDATTKGENDFHGRLTGTLQRQE"
quantity_measured = "pKd"
observed_result = 5.07

[[record]]
molecule = "mFAP2: SEQ ID NO:38; variant of b11L5F.1 with 6-residue insertion in the seventh β-turn (protein, (1)..(1) optionally absent) MSRAAQLLPGTWQVTMTNEDGQTSQGQMHFQPRSPYTMDVVAQGTISDGRPISGYGKVTVKTPDTLDVDITYPSLGNIKAQGQITMDSPTQFKFDATTKGAGNFTGRLTGTLQRQE"
quantity_measured = "pKd"
observed_result = 4.64

[[record]]
molecule = "mFAP2.3: SEQ ID NO:58 (protein, (1)..(1) optionally absent) MSRAAQLLPGTWQVTMTNEDGQTSQGQMHFQPRSPYTMDVVAQGTISDGRPIVGYGKVTVKTPDTLDVDITYPSLGNIKAQGQITMDSPTQFKFDATTKGENDFHGRLTGTLQRQE"
quantity_measured = "pKd"
observed_result = 4.98

